Each entry below carries its reported glass transition temperature.
# value in °C; strip the unit string

Completed entries (count: 5):
**Query** Please report glass transition temperature for the following compound: *c1ccc(Oc2ccc(-c3ccc(Oc4ccc(-c5cnc6cc(-c7ccc8nc(*)cnc8c7)ccc6n5)cc4)cc3)cc2)cc1 (repeat unit)
**Result** 213.00

**Query** Please report glass transition temperature for the following compound: *c1cccc(NC(=O)c2ccc(OCCOCCOCCOc3ccc(C(=O)Nc4ccc5[nH]c(*)nc5c4)cc3)cc2)c1 (repeat unit)
**Result** 180.00

**Query** Please report glass transition temperature for the following compound: *CC(=O)Nc1ccc(Oc2ccc(NC(=O)CN3C(=O)c4ccc(C(=O)c5ccc6c(c5)C(=O)N(*)C6=O)cc4C3=O)cc2)cc1 (repeat unit)
**Result** 235.00

**Query** Please report glass transition temperature for the following compound: *c1ccc(C(=O)c2ccc(-n3nc(-c4ccc(Oc5ccc(-c6nn(*)c(=O)c7ccccc67)cc5)cc4)c4ccccc4c3=O)cc2)cc1 (repeat unit)
**Result** 301.00

**Query** Please report glass transition temperature for the following compound: *Oc1ccc(Cc2ccc(OC(=O)c3ccc(C(C)(C)c4ccc(C(*)=O)cc4)cc3)cc2)cc1 (repeat unit)
**Result** 140.00

***
**Query** Please report glass transition temperature for the following compound: *CCCCCCCN1C(=O)c2ccc(-c3ccc(-c4ccc5c(c4)C(=O)N(*)C5=O)cc3)cc2C1=O (repeat unit)
**Result** 135.00

**Query** Please report glass transition temperature for the following compound: *CC(*)(C)C(=O)OCCN(CCCC)c1ccc(/N=N/c2ccc(S(=O)(=O)Nc3cc(C)on3)cc2)cc1 (repeat unit)
**Result** 105.00

**Query** Please report glass transition temperature for the following compound: *Oc1ccc(C(=C(Cl)Cl)c2ccc(OC(*)=O)cc2)cc1 (repeat unit)
**Result** 167.00

* * *

quantity: glass transition temperature
Please don't drop the unit; write it after the number.

Completed entries (count: 2):
**Query** Please report glass transition temperature for the following compound: *C/C(C)=C/C(C)S(*)(=O)=O (repeat unit)
**Result** 83.00 °C

**Query** Please report glass transition temperature for the following compound: *CCN(*)CCOCCOC (repeat unit)
**Result** 16.00 °C

# context switch: different compound, same glass transition temperature
**Query** Please report glass transition temperature for the following compound: *c1cc(CCOCCOC)c(*)[nH]1 (repeat unit)
**Result** -43.00 °C

* * *

Each entry below carries its reported glass transition temperature.
# value in °C; strip the unit string

**Query** Please report glass transition temperature for the following molecule: *O[Si](C)(C)CC[Si](C)(C)Oc1c(C)cc(-c2cc(C)c(*)c(C)c2)cc1C (repeat unit)
**Result** 55.00

**Query** Please report glass transition temperature for the following molecule: *Oc1ccc(C(=O)c2ccc(Oc3ccc(C(=O)c4ccc(Oc5cccc(Cc6cccc(*)c6)c5)cc4)cc3)cc2)cc1 (repeat unit)
**Result** 123.00

**Query** Please report glass transition temperature for the following molecule: */C(C)=C(/*)CCCCCCC (repeat unit)
**Result** 160.00

# context switch: different molecule, same glass transition temperature
**Query** Please report glass transition temperature for the following molecule: *CCCCCCCCc1nc2ccc(-c3ccc4nc(*)sc4c3)cc2s1 (repeat unit)
**Result** 238.00

* * *

Each entry below carries its reported glass transition temperature.
# value in °C; strip the unit string

**Query** Please report glass transition temperature for the following compound: *c1ccc(Oc2ccc(Sc3ccc(Oc4ccc(N5C(=O)c6ccc(Oc7ccc(Oc8ccc(Oc9ccc%10c(c9)C(=O)N(*)C%10=O)cc8)cc7)cc6C5=O)cc4)cc3)cc2)cc1 (repeat unit)
**Result** 194.00

**Query** Please report glass transition temperature for the following compound: *c1cc(C(=O)Oc2cccc3cccnc23)c(*)s1 (repeat unit)
**Result** 154.00

***
**Query** Please report glass transition temperature for the following compound: *CC(O)COc1ccc(C(C)(C)c2ccc(OCC(O)COc3ccc(NC(=O)CCCCCC(=O)Nc4ccc(O*)cc4)cc3)cc2)cc1 (repeat unit)
**Result** 116.00

**Query** Please report glass transition temperature for the following compound: *CCN(CCOC(=O)Nc1cccc(NC(=O)O*)c1C)c1ccc(/N=N/c2ccc([N+](=O)[O-])cc2)cc1 (repeat unit)
**Result** 147.00

**Query** Please report glass transition temperature for the following compound: *CCCCCCOC(=O)OCCCOC(=O)OCCCCCCOc1ccc(C(=O)c2ccc(O*)cc2)cc1 (repeat unit)
**Result** 16.00

**Query** Please report glass transition temperature for the following compound: *C(=O)Nc1ccc(Oc2cccc3c(NC(=O)c4ccc5c(c4)C(=O)N(c4ccc(Oc6cccc7c(N8C(=O)c9ccc(*)cc9C8=O)cccc67)cc4)C5=O)cccc23)cc1 (repeat unit)
**Result** 276.00

**Query** Please report glass transition temperature for the following compound: *C(=O)c1ccc(Oc2ccc(Oc3ccc(C(=O)c4ccc5c(c4)C(=O)N(c4ccc(N6C(=O)c7ccc(*)cc7C6=O)cc4)C5=O)cc3)cc2)cc1 (repeat unit)
**Result** 236.00

**Query** Please report glass transition temperature for the following compound: *c1ccc(NC(=O)c2ccc(C(=O)Nc3ccc(-c4nnc(*)o4)cc3)c(Oc3ccccc3)c2)cc1 (repeat unit)
**Result** 272.00

**Query** Please report glass transition temperature for the following compound: *C(=O)Nc1ccc(Oc2ccccc2-c2ccccc2Oc2ccc(NC(=O)c3ccc4c(c3)C(=O)N(c3ccc(Oc5ccc(N6C(=O)c7ccc(*)cc7C6=O)cc5)cc3)C4=O)cc2)cc1 (repeat unit)
**Result** 239.00

**Query** Please report glass transition temperature for the following compound: *c1ccc(OCCCCOc2ccc(-c3nc4ccc(-c5ccc6nc(*)c(-c7ccccc7)nc6c5)cc4nc3-c3ccccc3)cc2)cc1 (repeat unit)
**Result** 240.00

* * *

Binary label based on glass transition temperature with cut-off 50 °C: below gives 1.0, not below gives 0.0.

Below are worked cases with known answers.
**Query** For *CCCCCCOc1ccc(C(=O)N(C(=O)c2ccc(O*)cc2)c2ccccc2)cc1 (repeat unit) , is the recorded glass transition temperature below the cut-off of 50 °C?
**Result** 0.0

**Query** For *Oc1ccc(CC(NC(=O)Cc2ccc(OC(=O)CCCC(*)=O)cc2)C(=O)OCCCCCCCC)cc1 (repeat unit) , is the recorded glass transition temperature below the cut-off of 50 °C?
**Result** 1.0

**Query** For *Oc1ccc(-c2ccc(OC(*)(Oc3ccccc3)Oc3ccccc3)c(C)c2)cc1C (repeat unit) , is the recorded glass transition temperature below the cut-off of 50 °C?
**Result** 0.0

**Query** For *Oc1cc(OC(=O)c2ccc(OCCCC)cc2)c(OC(=O)CCCC(*)=O)cc1OC(=O)c1ccc(OCCCC)cc1 (repeat unit) , is the recorded glass transition temperature below the cut-off of 50 °C?
**Result** 0.0

**Query** For *O[Si](*)(C)CCCCCCOc1ccc(C(=O)Oc2ccc(OC)cc2)cc1 (repeat unit) , is the recorded glass transition temperature below the cut-off of 50 °C?
**Result** 1.0

**Query** For *CC(CO*)(CSC)CSC (repeat unit) , is the recorded glass transition temperature below the cut-off of 50 °C?
**Result** 1.0

***
**Query** For *Oc1ccc(C2(c3ccc(OC(=O)c4cccc(C(*)=O)c4)c(C)c3)c3ccccc3-c3ccccc32)cc1C (repeat unit) , is the recorded glass transition temperature below the cut-off of 50 °C?
**Result** 0.0

* * *

quantity: glass transition temperature (°C)
# value in °C; strip the unit string

Completed entries (count: 3):
**Query** Please report glass transition temperature for the following molecule: *Cc1ccc(C(C)(CC)c2ccc(Cn3c(=O)c4cc5c(=O)n(*)c(=O)c5cc4c3=O)o2)o1 (repeat unit)
**Result** 143.00

**Query** Please report glass transition temperature for the following molecule: *c1cccc(P(=O)(c2cccc(-n3c(=O)c4cc5c(=O)n(*)c(=O)c5c(-c5ccccc5)c4c3=O)c2)c2cc(C(F)(F)F)cc(C(F)(F)F)c2)c1 (repeat unit)
**Result** 300.00

**Query** Please report glass transition temperature for the following molecule: *CCCCCOC(=O)c1ccccc1C(=O)[O][Pb][O]C(=O)c1ccccc1C(=O)OCCCCCOC(=O)NCCCCCCNC(=O)O* (repeat unit)
**Result** -19.20

# context switch: different molecule, same glass transition temperature
**Query** Please report glass transition temperature for the following molecule: *CC(*)OC(C)C (repeat unit) [Poly(vinyl isopropyl ether) ]
**Result** -4

* * *

Each entry below carries its reported glass transition temperature.
# value in °C; strip the unit string

Completed entries (count: 5):
**Query** Please report glass transition temperature for the following molecule: *O[Si](C)(C)CCCCCCOC(=O)C(C)Oc1ccc(OC(=O)c2ccc(-c3ccc(OCCCCCCCCCC[Si](*)(C)C)cc3)cc2)cc1 (repeat unit)
**Result** 35.00

**Query** Please report glass transition temperature for the following molecule: *CCC(=O)O* (repeat unit)
**Result** -24.00

**Query** Please report glass transition temperature for the following molecule: *CCN(CCOC(=O)c1cc(OCCN(C)c2ccc(S(=O)(=O)C(F)(F)C(F)(F)C(F)(F)C(F)(F)C(F)(F)C(F)(F)C(F)(F)C(F)(F)F)cc2)cc(C(=O)O*)c1)c1ccc(S(=O)(=O)C(F)(F)C(F)(F)C(F)(F)C(F)(F)C(F)(F)C(F)(F)C(F)(F)C(F)(F)F)cc1 (repeat unit)
**Result** 83.00

**Query** Please report glass transition temperature for the following molecule: *N(C)[Si](*)(C)C=C (repeat unit)
**Result** -20.00

**Query** Please report glass transition temperature for the following molecule: *CCCCCNc1nc(NCCCCCc2nc3cc(-c4ccc5[nH]c(*)nc5c4)ccc3[nH]2)nc(N(CC)CC)n1 (repeat unit)
**Result** 190.00

# context switch: different molecule, same glass transition temperature
**Query** Please report glass transition temperature for the following molecule: *CC(*)(C)C(=O)OCCCCCCOc1ccc(C(=O)Oc2ccc(/N=N/c3ccc(I)cc3)c3ccccc23)cc1 (repeat unit)
**Result** 40.00
